B1: RNA-binding E3 ubiquitin-protein ligase MEX3C, residues 325 to 391; numbered along this chain, Q5U5Q3 (parent)
chain: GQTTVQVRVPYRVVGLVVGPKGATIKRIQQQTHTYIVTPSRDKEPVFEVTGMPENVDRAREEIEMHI

- Variants of: B1
- method: abundance fitness (aPCA) (normalised: wild type 0, dead -1); higher = more abundant; growth selection in yeast, the domain comes from the species named
- condition: Homo sapiens
measured_endpoint: abundance fitness
The answer should be written as a number, with no unit following it.

Solved entries:
variant_code | test_result
M52I | -0.183
M52Y | -0.19

Shift focus to the following entry.
Looking up K43T , I found its abundance fitness recorded as -0.05
